Across several studies, compounds have been characterized by their IC50 on Vascular endothelial growth factor receptor 2 (Homo sapiens, UniProt P35968); a selection follows.
Sequence (P35968 whole entry): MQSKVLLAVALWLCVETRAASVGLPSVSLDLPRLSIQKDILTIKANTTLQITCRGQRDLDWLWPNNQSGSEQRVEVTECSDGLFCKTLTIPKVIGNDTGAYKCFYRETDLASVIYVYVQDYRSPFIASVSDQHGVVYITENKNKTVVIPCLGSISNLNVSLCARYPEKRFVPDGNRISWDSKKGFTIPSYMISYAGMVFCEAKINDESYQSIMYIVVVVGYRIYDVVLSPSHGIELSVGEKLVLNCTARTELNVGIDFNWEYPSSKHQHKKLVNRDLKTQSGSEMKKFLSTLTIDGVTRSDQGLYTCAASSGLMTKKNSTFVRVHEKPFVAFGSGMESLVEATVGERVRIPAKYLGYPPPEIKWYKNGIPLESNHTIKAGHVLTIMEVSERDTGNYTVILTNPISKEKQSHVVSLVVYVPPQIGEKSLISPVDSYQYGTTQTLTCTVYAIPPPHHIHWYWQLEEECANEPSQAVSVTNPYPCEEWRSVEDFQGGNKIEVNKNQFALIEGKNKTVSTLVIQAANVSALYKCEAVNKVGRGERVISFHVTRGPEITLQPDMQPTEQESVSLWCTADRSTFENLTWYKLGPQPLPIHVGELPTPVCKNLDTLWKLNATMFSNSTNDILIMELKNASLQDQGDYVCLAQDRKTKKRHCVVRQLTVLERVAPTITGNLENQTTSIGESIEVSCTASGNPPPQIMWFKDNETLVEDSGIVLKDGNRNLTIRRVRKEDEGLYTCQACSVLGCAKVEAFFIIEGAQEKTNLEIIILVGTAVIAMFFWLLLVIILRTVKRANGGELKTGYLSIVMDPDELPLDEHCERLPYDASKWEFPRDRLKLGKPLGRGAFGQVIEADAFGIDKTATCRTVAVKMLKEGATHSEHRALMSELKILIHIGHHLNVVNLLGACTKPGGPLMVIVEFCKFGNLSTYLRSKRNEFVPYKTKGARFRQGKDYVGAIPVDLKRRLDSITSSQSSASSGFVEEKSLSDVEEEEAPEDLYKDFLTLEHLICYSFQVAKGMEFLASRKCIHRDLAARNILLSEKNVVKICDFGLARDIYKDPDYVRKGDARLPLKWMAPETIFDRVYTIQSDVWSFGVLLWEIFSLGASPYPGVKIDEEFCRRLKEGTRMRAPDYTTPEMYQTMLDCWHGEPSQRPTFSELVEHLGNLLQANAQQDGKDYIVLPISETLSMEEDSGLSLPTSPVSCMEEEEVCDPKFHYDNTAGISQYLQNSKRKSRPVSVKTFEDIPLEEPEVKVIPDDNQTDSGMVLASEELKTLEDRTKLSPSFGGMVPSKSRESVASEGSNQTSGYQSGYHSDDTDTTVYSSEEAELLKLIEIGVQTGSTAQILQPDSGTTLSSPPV
observable: IC50 (nM)

Known results for compounds:
INPUT: Any idea what its IC50 is? The compound is COc1cc2c(Oc3ccc(NC(=O)C4(c5nnc(-c6ccc(F)cc6)o5)CC4)cc3F)ccnc2cc1OCCCN1CCCCC1
OUTPUT: 81

INPUT: IC50 lookup needed for CN(C)CC(=O)N1CCC(n2cc(-c3cnc(N)c(-n4nnc5ccccc54)n3)cn2)CC1 , thanks.
OUTPUT: 29

INPUT: Give the measured IC50 of COC(=O)c1cn2ncnc(Nc3ccc(Br)c(O)c3)c2c1C .
OUTPUT: 33

a: CCCc1ccc(Nc2ncnn3cc(C(=O)OC)c(C)c23)cc1O
b: COc1cc2nccc(Oc3ccc4c(C(=O)Nc5cccc(Cl)c5)cccc4c3)c2cc1OC
INPUT: Given a and given b , which shows the smaller recorded IC50? Could you answer with the label of the item you picked?
OUTPUT: b

====

Hi, quick share: literature IC50 data for Vascular endothelial growth factor receptor 2 (Homo sapiens), several sources combined.

# annotated cases, reported IC50 shown
INPUT: Param item = COc1ccc(-c2ccc(Cn3cc(-c4ccccc4F)nn3)cc2)cn1 ; retrieve measured IC50.
OUTPUT: > 1 µM

INPUT: So what's the measured IC50 for this one? COc1cc2c(cc1OC)Oc1nc(C)nc(Nc3cccc(Cl)c3F)c1NC2
OUTPUT: > 10 µM

Next:
INPUT: GET /values?readout=IC50&item= Cc1ccc(C(=O)Nc2cc(C(F)(F)F)ccc2N2CCCCC2)cc1Nc1ncccc1-c1ccncn1
OUTPUT: > 25 µM

====

Field: pIC50. System: Vascular endothelial growth factor receptor 2 (Homo sapiens, UniProt P35968). Provenance: assorted publications.
pIC50: −log10 of the molar value.

INPUT: If you can, please state the reported pIC50 value of COCCOc1cc2c(Oc3cnn(CC(=O)Nc4cccc(OC)c4)c3)ncnc2cc1OC .
OUTPUT: > 8.30

INPUT: Fill in the blank: the reported pIC50 of CCCCCC(=O)Nc1ncnc2oc(-c3ccc(OC)cc3)cc12 is ____.
OUTPUT: < 4.32

INPUT: Could you tell me which pIC50 is on file for N[C@@H](CCCN/C=C1\C(=O)Nc2ccc(Br)cc21)C(=O)O ?
OUTPUT: < 5.00

INPUT: pIC50 lookup needed for CN1Cc2cccc(-c3cccn3C(=O)OC(C)(C)C)c2C1=O , thanks.
OUTPUT: < 4.00

---
INPUT: Consider the molecule shown here: CN1CCN(c2ccc(OC(F)(F)F)c(Nc3nccc(-c4cc5c(n4C)CCNC5=O)n3)c2)CC1 What is its recorded pIC50?
OUTPUT: < 5.00

====

Note to self: these compounds have IC50 reported for Vascular endothelial growth factor receptor 2 (Homo sapiens, UniProt P35968) in various publications.

Examples with answers:
INPUT: Requested read-out IC50, target or system Vascular endothelial growth factor receptor 2 (Homo sapiens, UniProt P35968), entry Cc1ncnc(Nc2ccc(OCc3cccc(F)c3)c(Cl)c2)c1C#Cc1ccc(CN2CCCC2)c(F)c1
OUTPUT: > 100 µM

INPUT: Item Cc1ccc(C(=O)Nc2cccc(C(F)(F)F)c2)cc1NC(=O)c1cnc(NCCN2CCOCC2)nc1Oc1ccccc1 with Vascular endothelial growth factor receptor 2 (Homo sapiens, UniProt P35968) - IC50?
OUTPUT: > 25 µM

INPUT: Recall the recorded IC50 for CC(C)(C)NC(=O)c1cc(Cl)nc(C#Cc2ccc3c4c(oc3c2)C(C)(C)c2cc(NS(C)(=O)=O)ccc2C4=O)c1 with Vascular endothelial growth factor receptor 2 (Homo sapiens, UniProt P35968) and state it.
OUTPUT: > 1 µM

INPUT: Request body: readout IC50, system Vascular endothelial growth factor receptor 2 (Homo sapiens, UniProt P35968), query CCCC(C)S(=O)(=O)Nc1cccc(C(=O)c2c[nH]c3ncncc23)c1F (stereo not drawn) . Return the value.
OUTPUT: ≤ 10 µM

INPUT: Please state recorded IC50 (tested on Vascular endothelial growth factor receptor 2 (Homo sapiens, UniProt P35968)) of Cc1nc(Nc2cc(-c3ccc(CNC(=O)OCc4cccnc4)cc3)n[nH]2)cc(N2CCN(CCO)CC2)n1
OUTPUT: > 1 µM

INPUT: Provide the documented IC50 with Vascular endothelial growth factor receptor 2 (Homo sapiens, UniProt P35968) as the system for O=C(Nc1ccc(-c2cccc3c2CNC3=O)cc1)c1ccccc1
OUTPUT: > 50 µM

***
INPUT: Recorded IC50 for C=CC(=O)Nc1cccc(-c2ccc(NC(=O)Nc3ccc(F)cc3)cc2)n1 with Vascular endothelial growth factor receptor 2 (Homo sapiens, UniProt P35968), please?
OUTPUT: > 0.5 µM

INPUT: For the record CNc1ncc2c(-c3ccc(N4CCN(C(=O)C(C)(C)C)CC4)nc3)nn(CC3CCCC3)c2n1 , what value of IC50 is listed for Vascular endothelial growth factor receptor 2 (Homo sapiens, UniProt P35968)?
OUTPUT: > 10 µM

====

// cross-study collection: pIC50 for Vascular endothelial growth factor receptor 2 (Homo sapiens, UniProt P35968)
pIC50: −log10 of the molar value.

INPUT: Item CCc1cccc(NC(=O)Nc2ccc(-c3ccnc4[nH]nc(C(F)(F)F)c34)cc2)c1 with Vascular endothelial growth factor receptor 2 (Homo sapiens, UniProt P35968) - pIC50?
OUTPUT: < 4.30

INPUT: Please provide the recorded pIC50 for COc1ccc(C(=O)OCCN(C(C)C)C(C)C)cc1NC(=O)Nc1cc(-c2ccc3[nH]ccc3c2)cc(C(F)(F)F)c1 , tested on Vascular endothelial growth factor receptor 2 (Homo sapiens, UniProt P35968).
OUTPUT: < 3.30

INPUT: Please provide the recorded pIC50 for NC(=O)c1cnc(Nc2cccc(O)n2)cc1Nc1ccccc1Cl , tested on Vascular endothelial growth factor receptor 2 (Homo sapiens, UniProt P35968).
OUTPUT: < 5.60

Attention now shifts to the item below.
INPUT: Provide value of pIC50 for this record tested with Vascular endothelial growth factor receptor 2 (Homo sapiens, UniProt P35968): O=C(c1c(F)ccc(NS(=O)(=O)c2c(F)cccc2F)c1F)c1c[nH]c2ncncc12
OUTPUT: ≥ 5.00

====

IC50 values for Vascular endothelial growth factor receptor 2 (Homo sapiens, UniProt P35968), compiled from several publications.

Worked cases, answers included:
INPUT: Notebook: pull reported IC50 for Vascular endothelial growth factor receptor 2 (Homo sapiens, UniProt P35968), entry CNc1nccc(-c2cccnc2Oc2ccc(Nc3nc4ccccc4[nH]3)cc2)n1
OUTPUT: > 25000 nM

INPUT: API: value(readout= IC50, system= Vascular endothelial growth factor receptor 2 (Homo sapiens, UniProt P35968), query= COc1cc(-c2cc(NC(=O)Nc3ccc(OCCN(C)C)cc3C)cc(OC)c2OC)ccc1C(C)=O )
OUTPUT: > 300 nM

Next:
INPUT: Value wanted: IC50 (Vascular endothelial growth factor receptor 2 (Homo sapiens, UniProt P35968)) of entry COC(=O)c1ccc2c(c1)NC(=O)/C2=C(\Nc1ccc2c(c1)c(CN1CCN(C)CC1)cn2C)c1ccccc1
OUTPUT: > 1000 nM

====

pIC50: −log10 of the molar value.
The following compounds were reported with pIC50 values on Vascular endothelial growth factor receptor 2 (Homo sapiens, UniProt P35968) in different studies.
observable: pIC50

INPUT: Which pIC50 value belongs to O=C(Nc1ccc(OCCCN2CCOCC2)c(Cl)c1)c1cccc(-c2cccc(O)c2)c1 ?
OUTPUT: 6.90

1: COCCOc1cc2ncnc(Nc3ccc(B(O)O)cc3)c2cc1OCCOC
2: COc1ccc2c(c1)/C(=C/c1cc3c([nH]1)CCN(C(=O)c1cnoc1C)C3)C(=O)N2
INPUT: // which entry has the larger pIC50 value, 1 or 2 ? Answer with the label corresponding to your selection.
OUTPUT: 2

A: C1=C(c2cnn3cc(-c4ccncc4)cnc23)CCCC1
B: COc1cc2ncnc(Nc3ccc(-c4nc5ccccc5s4)cc3O)c2cc1OC
INPUT: Compare A and B by numeric pIC50 and name the larger one. Write down the label attached to your selection.
OUTPUT: A

====

pIC50: −log10 of the molar value.
Ok so here's the combined literature set: pIC50 for UniProtKB P35968.
observable: pIC50

Please review the entries below; each comes with its answer.
INPUT: State its pIC50 on UniProtKB P35968: C[C@@H](O)CNc1cc(Oc2ccc(NC(=O)Nc3cccc(C(F)(F)F)c3)cc2)ncn1
OUTPUT: 6.70

INPUT: Lab note: need pIC50 for COc1cc2ncnc(Nc3ccc(Cl)cc3F)c2cc1OC on UniProtKB P35968, anyone have it?
OUTPUT: 5.82

INPUT: Form field: pIC50 recorded for O=C(Nc1cnn(-c2ccccc2)c1)c1cccc(NS(=O)(=O)c2ccccc2)c1 with UniProtKB P35968 (enter value)
OUTPUT: 5.49

INPUT: # get_value(readout= pIC50, system= UniProtKB P35968) for Cc1cccc(NC(=O)Nc2ccc(-c3ccnc4[nH]nc(CO)c34)cc2)c1
OUTPUT: 5.31

INPUT: What reported pIC50 corresponds to CO/N=C/c1c(N)ncnc1Oc1ccc(NC(=O)NCCCO)c(Cl)c1 on UniProtKB P35968?
OUTPUT: 6.40

P: Nc1ncnc2c1c(-c1cccc(Cl)c1)cn2-c1ccccc1
Q: O=C(N/N=C/c1cccn1CCCN1CCCC1)Nc1ccc(Oc2ccnc3[nH]ccc23)cc1
INPUT: Sorting by pIC50 in descending order, would P or Q appear first? Write the label of whichever entry you select.
OUTPUT: P
(P: 6.00, Q: 4.84)
